system: MT-4 cell line; experiment: Cytotoxicity to non-infected MT-4 cell line, MTT method; format: cell-based; details: non-infected MT-4 cells, 5 day culture
For each entry below, report its Cytotoxicity CC50 value.
Expressed in µg/mL, but write only the number.

Exercise: Data request, read-out Cytotoxicity CC50, for Cc1c(O)cccc1C(=O)N[C@@H](Cc1ccccc1)[C@H](O)C(=O)N1CO[C@H](C)[C@H]1C(=O)NC(C)(C)C
Key: 191

Exercise: Now the compound Cc1c(O)cccc1C(=O)N[C@@H](Cc1ccccc1)[C@H](O)C(=O)N1CSC(C)(C)[C@H]1C(=O)NC(C)(C)C
Key: 156

Exercise: Now the compound CCc1c(O)cccc1C(=O)N[C@@H](Cc1ccccc1)[C@H](O)C(=O)N1CSC(C)(C)[C@H]1C(=O)NCc1ccccc1C
Key: 19.5

Exercise: Now the compound CCc1c(O)cccc1C(=O)N[C@@H](Cc1ccccc1)[C@H](O)C(=O)N1CSC[C@H]1C(=O)NCc1ccccc1C
Key: 90.9

Exercise: Now the compound Cc1ccccc1CNC(=O)[C@@H]1CSCN1C(=O)[C@@H](O)[C@H](Cc1ccccc1)NC(=O)c1cccc(O)c1C
Key: 24.5

###

For each entry below, report its inhibition at 5 µM value.
target: Recombinant HIV protease (Human immunodeficiency virus type 1 group M subtype B); construct: Recombinant HIV protease; assay: HIV protease inhibitory activity (cleavage of synthetic hepta-peptide, HPLC); assay type: biochemical; conditions: read-out: HIV protease inhibitory activity (%)
Write down the value, and be sure its unit follows.

Exercise: Data request, read-out inhibition at 5 µM, for CCCc1c(O)cccc1C(=O)N[C@@H](Cc1ccccc1)[C@H](O)C(=O)N1CSC[C@H]1C(=O)NC(C)(C)C [Compound of example 32]
Key: 92%

Exercise: Now the compound CCCCNC(=O)[C@@H]1CSCN1C(=O)[C@@H](O)[C@H](Cc1ccccc1)NC(=O)c1cccc(O)c1C [Compound of example 39]
Key: 92%

Exercise: Now the compound CC(C)(C)NC(=O)[C@@H]1CSCN1C(=O)[C@@H](O)[C@H](Cc1ccccc1)NC(=O)c1ccc(O)cc1 [Compound of example 7]
Key: 62.2%

###

assay: Pharmacokinetics in rats, intravenous or intraduodenal administration, plasma concentration; assay type: in vivo; conditions: i.v., 10.0 mg/kg
For each entry below, report its AUC value.
Expressed in µg/mL/min, but write only the number.

Exercise: Data request, read-out AUC, for CCc1c(O)cccc1C(=O)N[C@@H](Cc1ccccc1)[C@H](O)C(=O)N1CSC(C)(C)[C@H]1C(=O)NC(C)(C)C
Key: 174

Exercise: Now the molecule Cc1ccccc1CNC(=O)[C@H]1N(C(=O)[C@@H](O)[C@H](Cc2ccccc2)NC(=O)c2cccc(O)c2C)CSC1(C)C
Key: 131

Exercise: Now the molecule CSC[C@H](NC(=O)COc1cccc2cnccc12)C(=O)N[C@@H](Cc1ccccc1)[C@H](O)C(=O)N1CSC[C@H]1C(=O)NC(C)(C)C [KNI-272, reference compound]
Key: 224

###

molecular target: Recombinant HIV protease (Human immunodeficiency virus type 1 group M subtype B); construct: Recombinant HIV protease; assay: HIV protease inhibitory activity (cleavage of synthetic hepta-peptide, HPLC); assay type: biochemical; settings: concentration 50 nM (final), 37° C., 60 min
For each entry below, report its inhibition at 0.05 µM value.
Expressed in %, but write only the number.

Exercise: Data request, read-out inhibition at 0.05 µM, for Cc1c(O)cccc1C(=O)N[C@@H](Cc1ccccc1)[C@H](O)C(=O)N1CSC(C)(C)[C@H]1C(=O)NCc1ccccc1Cl [Compound of example 45]
Key: 94.5

Exercise: Now the molecule Cc1ccccc1CNC(=O)[C@@H]1CSCN1C(=O)[C@@H](O)[C@H](Cc1ccccc1)NC(=O)c1cccc(O)c1C [Compound of example 34]
Key: 69.8

Exercise: Now the molecule CCc1c(O)cccc1C(=O)N[C@@H](Cc1ccccc1)[C@H](O)C(=O)N1CSC(C)(C)[C@H]1C(=O)NCc1ccccc1C [Compound of example 38]
Key: 97.3

Exercise: Now the molecule CCc1c(O)cccc1C(=O)N[C@@H](Cc1ccccc1)[C@H](O)C(=O)N1CSC[C@H]1C(=O)NCc1ccccc1C [Compound of example 35]
Key: 48.8

Exercise: Now the molecule Cc1c(O)cccc1C(=O)N[C@@H](Cc1ccccc1)[C@H](O)C(=O)N1CSC[C@H]1C(=O)NCc1ccccc1Cl [Compound of example 42]
Key: 51.2

Exercise: Now the molecule CCc1c(O)cccc1C(=O)N[C@@H](Cc1ccccc1)[C@H](O)C(=O)N1CSC[C@H]1C(=O)NC(C)(C)C [Compound of example 31]
Key: 45.6

###

assay: Pharmacokinetics in rats, intravenous or intraduodenal administration, plasma concentration; assay type: in vivo; conditions: i.v., 10.0 mg/kg
MEASURED_PROPERTY: AUC (µg/mL/min)
Expressed in µg/mL/min, but write only the number.

Exercise: Data request, read-out AUC, for Cc1c(O)cccc1C(=O)N[C@@H](Cc1ccccc1)[C@H](O)C(=O)N1CSC(C)(C)[C@H]1C(=O)NC(C)(C)C
Key: 111

Exercise: Now the compound Cc1ccccc1CNC(=O)[C@@H]1CSCN1C(=O)[C@@H](O)[C@H](Cc1ccccc1)NC(=O)c1cccc(O)c1C
Key: 124

Exercise: Now the compound CCc1c(O)cccc1C(=O)N[C@@H](Cc1ccccc1)[C@H](O)C(=O)N1CSC[C@H]1C(=O)NC(C)(C)C
Key: 276

Exercise: Now the compound Cc1c(O)cccc1C(=O)N[C@@H](Cc1ccccc1)[C@H](O)C(=O)N1CSC[C@H]1C(=O)NC(C)(C)C
Key: 111

###

target: Recombinant HIV protease (Human immunodeficiency virus type 1 group M subtype B); construct: Recombinant HIV protease; assay: HIV protease inhibitory activity (cleavage of synthetic hepta-peptide, HPLC); type: biochemical; conditions: read-out: HIV protease inhibitory activity (%)
MEASURED_PROPERTY: inhibition at 5 µM

Exercise: Data request, read-out inhibition at 5 µM, for CCc1c(O)cccc1C(=O)N[C@@H](Cc1ccccc1)[C@H](O)C(=O)N1CSC(C)(C)[C@H]1C(=O)NC(C)(C)C [Compound of example 36]
Key: > 99%

Exercise: Now the compound CCc1c(O)cccc1C(=O)N[C@@H](Cc1ccccc1)[C@H](O)C(=O)N1CSC(C)(C)[C@H]1C(=O)NCc1ccccc1C [Compound of example 38]
Key: > 99%

Exercise: Now the compound Cc1ccccc1CNC(=O)[C@H]1N(C(=O)[C@@H](O)[C@H](Cc2ccccc2)NC(=O)c2cccc(O)c2C)CSC1(C)C [Compound of example 37]
Key: > 99%
